- Measurement Parameters: in isobutanol, 303.15 K
Property Label: solubility (mole fraction)

INSERT INTO assay_data (smiles_data, property_label, result_number) VALUES
  ('NC(=O)c1ccccc1', 'solubility (mole fraction)', 0.0489);

----------
- Measurement Parameters: in n-butyl acetate, 298.15 K
Property Label: solubility (mole fraction)

INSERT INTO assay_data (smiles_data, result_number) VALUES
  ('NC(=O)c1ccccc1', 0.0264);

----------
- Measurement Parameters: in n-propanol, 318.15 K
Property Label: solubility (mole fraction)

INSERT INTO assay_data (smiles_data, result_number) VALUES
  ('NC(=O)c1ccccc1', 0.103);

----------
- Measurement Parameters: in n-butanol, 283.15 K
Property Label: solubility (mole fraction)

INSERT INTO assay_data (smiles_data, result_number) VALUES
  ('NC(=O)c1ccccc1', 0.0308);

----------
- Measurement Parameters: in n-butanol, 303.15 K
Property Label: solubility (mole fraction)

INSERT INTO results (smiles_data, property_label, result_number) VALUES
  ('NC(=O)c1ccccc1', 'solubility (mole fraction)', 0.0591);

----------
- Measurement Parameters: in ethanol, 323.15 K
Property Label: solubility (mole fraction)

INSERT INTO assay_data (smiles_data, result_number) VALUES
  ('NC(=O)c1ccccc1', 0.143);

----------
- Measurement Parameters: in n-propanol, 298.15 K
Property Label: solubility (mole fraction)

INSERT INTO results (smiles_data, property_label, result_number) VALUES
  ('NC(=O)c1ccccc1', 'solubility (mole fraction)', 0.0561);

----------
- Measurement Parameters: in acetonitrile, 318.15 K
Property Label: solubility (mole fraction)

INSERT INTO results (smiles_data, property_label, result) VALUES
  ('NC(=O)c1ccccc1', 'solubility (mole fraction)', 0.0564);

----------
- Measurement Parameters: in water, 308.15 K
Property Label: solubility (mole fraction)

INSERT INTO results (smiles_data, result_number) VALUES
  ('NC(=O)c1ccccc1', 0.00306);

----------
- Measurement Parameters: in methanol, 313.15 K
Property Label: solubility (mole fraction)

INSERT INTO results (smiles_data, result) VALUES
  ('NC(=O)c1ccccc1', 0.141);

----------
- Measurement Parameters: in isopropanol, 313.15 K
Property Label: solubility (mole fraction)

INSERT INTO measurements (smiles_data, property_label, result_number) VALUES
  ('NC(=O)c1ccccc1', 'solubility (mole fraction)', 0.0767);

----------
- Measurement Parameters: in ethyl acetate, 303.15 K
Property Label: solubility (mole fraction)

INSERT INTO measurements (smiles_data, result_number) VALUES
  ('NC(=O)c1ccccc1', 0.0392);

----------
- Measurement Parameters: in ethyl acetate, 288.15 K
Property Label: solubility (mole fraction)

INSERT INTO results (smiles_data, property_label, result_number) VALUES
  ('NC(=O)c1ccccc1', 'solubility (mole fraction)', 0.0234);

----------
- Measurement Parameters: in methyl acetate, 308.15 K
Property Label: solubility (mole fraction)

INSERT INTO assay_data (smiles_data, property_label, result_number) VALUES
  ('NC(=O)c1ccccc1', 'solubility (mole fraction)', 0.0567);

----------
- Measurement Parameters: in isobutanol, 288.15 K
Property Label: solubility (mole fraction)

INSERT INTO results (smiles_data, result_number) VALUES
  ('NC(=O)c1ccccc1', 0.0289);

----------
- Measurement Parameters: in n-butyl acetate, 293.15 K
Property Label: solubility (mole fraction)

INSERT INTO results (smiles_data, result_number) VALUES
  ('NC(=O)c1ccccc1', 0.0224);

----------
- Measurement Parameters: in n-butanol, 308.15 K
Property Label: solubility (mole fraction)

INSERT INTO assay_data (smiles_data, property_label, result_number) VALUES
  ('NC(=O)c1ccccc1', 'solubility (mole fraction)', 0.0682);

----------
- Measurement Parameters: in n-propanol, 303.15 K
Property Label: solubility (mole fraction)

INSERT INTO assay_data (smiles_data, result_number) VALUES
  ('NC(=O)c1ccccc1', 0.0653);

----------
- Measurement Parameters: in isobutanol, 293.15 K
Property Label: solubility (mole fraction)

INSERT INTO assay_data (smiles_data, result_number) VALUES
  ('NC(=O)c1ccccc1', 0.0342);

----------
- Measurement Parameters: in n-butyl acetate, 308.15 K
Property Label: solubility (mole fraction)

INSERT INTO results (smiles_data, property_label, result_number) VALUES
  ('NC(=O)c1ccccc1', 'solubility (mole fraction)', 0.0349);

----------
- Measurement Parameters: in ethanol, 318.15 K
Property Label: solubility (mole fraction)

INSERT INTO results (smiles_data, result_number) VALUES
  ('NC(=O)c1ccccc1', 0.12);

----------
- Measurement Parameters: in acetone, 288.15 K
Property Label: solubility (mole fraction)

INSERT INTO assay_data (smiles_data, property_label, result_number) VALUES
  ('NC(=O)c1ccccc1', 'solubility (mole fraction)', 0.0589);

----------
- Measurement Parameters: in acetone, 283.15 K
Property Label: solubility (mole fraction)

INSERT INTO results (smiles_data, result_number) VALUES
  ('NC(=O)c1ccccc1', 0.0508);

----------
- Measurement Parameters: in water, 323.15 K
Property Label: solubility (mole fraction)

INSERT INTO results (smiles_data, property_label, result_number) VALUES
  ('NC(=O)c1ccccc1', 'solubility (mole fraction)', 0.00538);

----------
- Measurement Parameters: in water, 313.15 K
Property Label: solubility (mole fraction)

INSERT INTO measurements (smiles_data, property_label, result) VALUES
  ('NC(=O)c1ccccc1', 'solubility (mole fraction)', 0.00363);

----------
- Measurement Parameters: in isopropanol, 318.15 K
Property Label: solubility (mole fraction)

INSERT INTO assay_data (smiles_data, property_label, result_number) VALUES
  ('NC(=O)c1ccccc1', 'solubility (mole fraction)', 0.0893);

----------
- Measurement Parameters: in methanol, 303.15 K
Property Label: solubility (mole fraction)

INSERT INTO assay_data (smiles_data, property_label, result_number) VALUES
  ('NC(=O)c1ccccc1', 'solubility (mole fraction)', 0.105);

----------
- Measurement Parameters: in methanol, 308.15 K
Property Label: solubility (mole fraction)

INSERT INTO results (smiles_data, property_label, result_number) VALUES
  ('NC(=O)c1ccccc1', 'solubility (mole fraction)', 0.121);

----------
- Measurement Parameters: in ethyl acetate, 308.15 K
Property Label: solubility (mole fraction)

INSERT INTO assay_data (smiles_data, result_number) VALUES
  ('NC(=O)c1ccccc1', 0.0455);

----------
- Measurement Parameters: in ethyl acetate, 298.15 K
Property Label: solubility (mole fraction)

INSERT INTO measurements (smiles_data, result_number) VALUES
  ('NC(=O)c1ccccc1', 0.0334);

----------
- Measurement Parameters: in isobutanol, 313.15 K
Property Label: solubility (mole fraction)

INSERT INTO results (smiles_data, result_number) VALUES
  ('NC(=O)c1ccccc1', 0.0665);

----------
- Measurement Parameters: in acetonitrile, 308.15 K
Property Label: solubility (mole fraction)

INSERT INTO assay_data (smiles_data, result_number) VALUES
  ('NC(=O)c1ccccc1', 0.0385);

----------
- Measurement Parameters: in n-butyl acetate, 313.15 K
Property Label: solubility (mole fraction)

INSERT INTO results (smiles_data, property_label, result_number) VALUES
  ('NC(=O)c1ccccc1', 'solubility (mole fraction)', 0.0402);

----------
- Measurement Parameters: in ethanol, 303.15 K
Property Label: solubility (mole fraction)

INSERT INTO measurements (smiles_data, result_number) VALUES
  ('NC(=O)c1ccccc1', 0.0758);

----------
- Measurement Parameters: in isopropanol, 308.15 K
Property Label: solubility (mole fraction)

INSERT INTO assay_data (smiles_data, property_label, result_number) VALUES
  ('NC(=O)c1ccccc1', 'solubility (mole fraction)', 0.0642);

----------
- Measurement Parameters: in isopropanol, 288.15 K
Property Label: solubility (mole fraction)

INSERT INTO measurements (smiles_data, result_number) VALUES
  ('NC(=O)c1ccccc1', 0.0314);

----------
- Measurement Parameters: in water, 318.15 K
Property Label: solubility (mole fraction)

INSERT INTO results (smiles_data, property_label, result_number) VALUES
  ('NC(=O)c1ccccc1', 'solubility (mole fraction)', 0.00438);

----------
- Measurement Parameters: in isobutanol, 308.15 K
Property Label: solubility (mole fraction)

INSERT INTO measurements (smiles_data, property_label, result) VALUES
  ('NC(=O)c1ccccc1', 'solubility (mole fraction)', 0.0569);

----------
- Measurement Parameters: in n-propanol, 308.15 K
Property Label: solubility (mole fraction)

INSERT INTO results (smiles_data, property_label, result_number) VALUES
  ('NC(=O)c1ccccc1', 'solubility (mole fraction)', 0.0753);
